assay: Plasma and tumor compound concentrations in CT26 tumor-bearing mice (LC-MS/MS); format: in vivo, BALB/c mice; conditions: BALB/c, mouse, tumor, intravenous; 0.375 mg/kg single i.v., 24 h (Table 4); read-out: Tumor Conc.
Structures can show the parent of a compound that is named as a salt.
// reported concentration at 24 h for each item listed
Quick note: give the figure in nM, leave out the unit.

Reference set, count: 2
molecule	measureUnit	concentration at 24 h
CCn1nc(C)cc1C(=O)Nc1nc2cc(C(N)=O)cc3c2n1C/C=C/Cn1c(NC(=O)c2cc(C)nn2CC)nc2cc(C(=O)N[C@H]4CC[C@H](c5nnn[nH]5)CC4)cc(c21)OC[C@@H](N1C2CCC1COC2)CO3 [Compound 12, sodium salt]	nM	130
CCn1nc(C)cc1C(=O)Nc1nc2cc(C(N)=O)cc3c2n1C/C=C/Cn1c(NC(=O)c2cc(C)nn2CC)nc2cc(C(=O)N[C@H]4CC[C@H](C(=O)O)CC4)cc(c21)OC[C@@H](N1C2CCC1COC2)CO3 [Compound 14, sodium salt]	nM	180

**Q:** Query (molecule): CCn1nc(C)cc1C(=O)Nc1nc2cc(C(N)=O)cc3c2n1C/C=C/Cn1c(NC(=O)c2cc(C)nn2CC)nc2cc(C(=O)N[C@H]4CC[C@H](c5nnn[nH]5)CC4)cc(c21)OCCCO3 [Compound 6, sodium salt] ; field requested: concentration at 24 h
**A:** 260
